Recorded values, source the supplement of paper PMC8728848.

molecular target: Neu5Ac(a2-8)Neu5Ac(a2-3)Gal(b1-3)GalNAc(b1-4)[Neu5Ac(a2-8)Neu5Ac(a2-3)]Gal(b1-4)Glc; assay: glycan array binding signal (z-score within array); higher = stronger binding; details: glycan notation: IUPAC condensed, linker removed
This is one part of a sample in which the strongest signals are shown more often than they occur.

- Binder: "MFG-E8 (Homo sapiens), Q08431 (protein) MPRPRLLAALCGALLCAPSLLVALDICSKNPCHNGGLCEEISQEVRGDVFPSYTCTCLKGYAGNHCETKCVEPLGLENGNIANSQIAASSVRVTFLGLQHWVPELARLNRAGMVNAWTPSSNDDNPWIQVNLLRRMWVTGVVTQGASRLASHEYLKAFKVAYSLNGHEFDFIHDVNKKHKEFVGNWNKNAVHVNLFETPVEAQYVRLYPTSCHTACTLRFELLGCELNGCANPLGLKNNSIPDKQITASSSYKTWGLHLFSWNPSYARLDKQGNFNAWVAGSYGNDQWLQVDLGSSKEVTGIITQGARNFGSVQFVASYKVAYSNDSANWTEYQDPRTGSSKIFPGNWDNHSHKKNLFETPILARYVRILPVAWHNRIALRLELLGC"
  glycan array binding signal (z-score): -0.776
- Binder: "Gal 3C (Homo sapiens), P17931 (protein) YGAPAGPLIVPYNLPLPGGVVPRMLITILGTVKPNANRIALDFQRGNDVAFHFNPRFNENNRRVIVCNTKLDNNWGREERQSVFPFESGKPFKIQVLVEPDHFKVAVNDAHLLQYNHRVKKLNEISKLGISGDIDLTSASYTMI"
  glycan array binding signal (z-score): -0.226
